We begin with a simple list: items and their reported GI50.
# System: panel of 55 breast cancer cell lines
# METHOD_DESCRIPTION: Cell growth inhibition assay (Cell Titer Glo, 72 h, 9 doses; GI50, TGI, LC50)
# Assay type: cell-based, human
# RUN_PARAMETERS: cell line UACC893; value is the negative log10 of mol/L
# answer = number (no unit)

Some compounds with known GI50 results, for comparison:
{"COMPOUND": "CC(/C=C/C(=O)NO)=C\\[C@@H](C)C(=O)c1ccc(N(C)C)cc1", "GI50": 5.54}
{"COMPOUND": "CC(C)[C@H](CO)Nc1nc(Nc2cccc(Cl)c2)c2ncn(C(C)C)c2n1", "GI50": 3.78}
{"COMPOUND": "CC(C)Oc1ccc(C(=O)N[C@H](CNC(=O)CN(C)C)Cc2ccc(-c3cn4cccc([C@H](C)O)c4n3)cc2)cc1Cl", "GI50": 7.91}
{"COMPOUND": "CC(=O)Nc1cccc(-n2c(=O)n(C3CC3)c(=O)c3c(Nc4ccc(I)cc4F)n(C)c(=O)c(C)c32)c1.C[S+](C)[O-] [GSK1120212B]", "GI50": 4.81}

Now consider the entry below.
**Q:** Could you tell me which GI50 is on file for O=c1[nH]c(=O)n([C@H]2C[C@H](O)[C@@H](CO)O2)cc1F ?
**A:** 3.30

* * *

# Test system: panel of 55 breast cancer cell lines
# METHOD_DESCRIPTION: Cell growth inhibition assay (Cell Titer Glo, 72 h, 9 doses; GI50, TGI, LC50)
# Assay type: cell-based, human
# RUN_PARAMETERS: Homo sapiens, cell line MDAMB175V; read-out: GI50 (converted)
We begin with a simple list: items and their reported log10 GI50.
In plain terms, each number is the log10 of measured GI50 in nM.

{"CPD_SMILES": "Cn1c(=O)n(-c2ccc(C(C)(C)C#N)cc2)c2c3cc(-c4cnc5ccccc5c4)ccc3ncc21", "EXPERIMENTAL_TARGET": "panel of 55 breast cancer cell lines", "ASSAY_ENDPOINT": "log10 GI50", "MEASURED_NUMBER": 3.06}
{"CPD_SMILES": "CCC1=C[C@@H]2CN(C1)Cc1c([nH]c3ccccc13)[C@@](C(=O)OC)(c1cc3c(cc1OC)N(C)[C@H]1[C@@](O)(C(=O)OC)[C@H](OC(C)=O)[C@]4(CC)C=CCN5CC[C@]31[C@@H]54)C2", "EXPERIMENTAL_TARGET": "panel of 55 breast cancer cell lines", "ASSAY_ENDPOINT": "log10 GI50", "MEASURED_NUMBER": 1.59}

Now consider the entry below.
**Q:** So what log10 GI50 did CC(=O)O[C@H]1C(=O)[C@@]2(C)[C@H]([C@H](OC(=O)c3ccccc3)[C@]3(O)C[C@H](OC(=O)[C@H](O)[C@@H](NC(=O)c4ccccc4)c4ccccc4)C(C)=C1C3(C)C)[C@]1(OC(C)=O)CO[C@@H]1C[C@@H]2O get with panel of 55 breast cancer cell lines?
**A:** 1.29

* * *

# System: panel of 55 breast cancer cell lines
# METHOD_DESCRIPTION: Cell growth inhibition assay (Cell Titer Glo, 72 h, 9 doses; GI50, TGI, LC50)
# Format: cell-based, human
# RUN_PARAMETERS: Homo sapiens, HCC1806, cell line HCC1806; read-out: GI50 (converted)
We begin with a simple list: items and their reported GI50.

{"COMPOUND": "CN(Cc1cnc2nc(N)nc(N)c2n1)c1ccc(C(=O)N[C@@H](CCC(=O)O)C(=O)O)cc1 [Methotrexate]", "RESULT": "166 µM"}
{"COMPOUND": "CC(=O)O[C@@]12CO[C@@H]1C[C@H](O)[C@@]1(C)C(=O)[C@H](O)C3=C(C)[C@@H](OC(=O)[C@H](O)[C@@H](NC(=O)OC(C)(C)C)c4ccccc4)C[C@@](O)([C@@H](OC(=O)c4ccccc4)[C@H]21)C3(C)C", "RESULT": "0.00257 µM"}
{"COMPOUND": "Nc1nc2[nH]cc(CCc3ccc(C(=O)N[C@@H](CCC(=O)O)C(=O)O)cc3)c2c(=O)[nH]1", "RESULT": "1480 µM"}
{"COMPOUND": "Cc1[nH]c2ccccc2c1CCNCc1ccc(/C=C/C(=O)NO)cc1", "RESULT": "0.151 µM"}
{"COMPOUND": "CO[C@H]1C[C@@H]2CC[C@@H](C)[C@@](O)(O2)C(=O)C(=O)N2CCCC[C@H]2C(=O)O[C@H]([C@H](C)C[C@@H]2CC[C@@H](O)[C@H](OC)C2)CC(=O)[C@H](C)/C=C(\\C)[C@@H](O)[C@@H](OC)C(=O)[C@H](C)C[C@H](C)/C=C/C=C/C=C/1C", "RESULT": "66.1 µM"}
{"COMPOUND": "CC(=O)O[C@H]1C(=O)[C@@]2(C)[C@H]([C@H](OC(=O)c3ccccc3)[C@]3(O)C[C@H](OC(=O)[C@H](O)[C@@H](NC(=O)c4ccccc4)c4ccccc4)C(C)=C1C3(C)C)[C@]1(OC(C)=O)CO[C@@H]1C[C@@H]2O", "RESULT": "0.00871 µM"}
{"COMPOUND": "CNC(=O)c1cc(Oc2ccc(NC(=O)Nc3ccc(Cl)c(C(F)(F)F)c3)cc2)ccn1", "RESULT": "148 µM"}
{"COMPOUND": "CC[C@@]1(O)C(=O)OCc2c1cc1n(c2=O)Cc2cc3c(CN(C)C)c(O)ccc3nc2-1", "RESULT": "0.0204 µM"}

**Q:** Could you tell me which GI50 is on file for COc1cccc2c1C(=O)c1c(O)c3c(c(O)c1C2=O)C[C@@](O)(C(=O)CO)C[C@@H]3O[C@H]1C[C@H](N)[C@@H](O)[C@H](C)O1 [Epirubicin] ?
**A:** 0.166 µM

**Q:** Could you tell me which GI50 is on file for C/C(=C\c1csc(C)n1)[C@@H]1C[C@@H]2O[C@]2(C)CCC[C@H](C)[C@H](O)[C@@H](C)C(=O)C(C)(C)[C@@H](O)CC(=O)N1 [Ixabepilone] ?
**A:** 0.0049 µM

**Q:** Could you tell me which GI50 is on file for COc1cc2ncnc(Nc3ccc(F)c(Cl)c3)c2cc1OCCCN1CCOCC1 ?
**A:** 4.68 µM

**Q:** Could you tell me which GI50 is on file for CC(C)C[C@H](NC(=O)[C@H](Cc1ccccc1)NC(=O)c1cnccn1)B(O)O ?
**A:** 0.0229 µM
